target: Angiotensin II receptor (Rattus norvegicus) (UniProt P29089+P25095+P35351); assay: Inhibitory activity on AII (100 ng/kg iv)-induced pressor response after administration at 0.1 mg/kg po in conscious male Sprague-Dawley rats at 2 h.; type: functional, organism-based; parameters: dose 0.1 mg/kg
Label TRUE when inhibition >= 80%; otherwise FALSE.

Solved cases below.
- MOLECULE: "CCOc1nc2cccc(C(=O)OCOC(=O)OCC3CC3)c2n1Cc1ccc(-c2ccccc2-c2nn[nH]n2)cc1"
  TARGET DESC: "Angiotensin II receptor (Rattus norvegicus) (UniProt P29089+P25095+P35351)"
  CATEGORY: "FALSE"
- MOLECULE: "CCOc1nc2cccc(C(=O)OCOC(=O)CC)c2n1Cc1ccc(-c2ccccc2-c2nn[nH]n2)cc1"
  TARGET DESC: "Angiotensin II receptor (Rattus norvegicus) (UniProt P29089+P25095+P35351)"
  CATEGORY: "FALSE"
- MOLECULE: "CCOc1nc2cccc(C(=O)OCOC(=O)OC3CCCC3)c2n1Cc1ccc(-c2ccccc2-c2nn[nH]n2)cc1"
  TARGET DESC: "Angiotensin II receptor (Rattus norvegicus) (UniProt P29089+P25095+P35351)"
  CATEGORY: "FALSE"

### Prompt Given the entry CCOc1nc2cccc(C(=O)OCc3oc(=O)oc3C)c2n1Cc1ccc(-c2ccccc2-c2nn[nH]n2)cc1 , answer whether its inhibition meets or surpasses 80%.
### Response TRUE

### Prompt What do you have for CCOc1nc2cccc(C(=O)OCOC(=O)c3ccccc3)c2n1Cc1ccc(-c2ccccc2-c2nn[nH]n2)cc1 ?
### Response FALSE

### Prompt What do you have for CCOc1nc2cccc(C(=O)OCOC(=O)C3CCCC3)c2n1Cc1ccc(-c2ccccc2-c2nn[nH]n2)cc1 ?
### Response FALSE

### Prompt What do you have for CCCCc1nc2cccc(C(=O)O)c2n1Cc1ccc(-c2ccccc2-c2nn[nH]n2)cc1 ?
### Response FALSE

### Prompt What do you have for CCOc1nc2cccc(C(=O)OCOC(=O)C3CCCCC3)c2n1Cc1ccc(-c2ccccc2-c2nn[nH]n2)cc1 ?
### Response FALSE

### Prompt What do you have for CCCCc1nc2cccc(C(=O)OC)c2n1Cc1ccc(-c2ccccc2-c2nn[nH]n2)cc1 ?
### Response FALSE

### Prompt What do you have for CCOc1nc2cccc(C(=O)OCOC(=O)C(C)C)c2n1Cc1ccc(-c2ccccc2-c2nn[nH]n2)cc1 ?
### Response FALSE

### Prompt What do you have for CCOc1nc2cccc(C(=O)OCOC(=O)C(C)(C)C)c2n1Cc1ccc(-c2ccccc2-c2nn[nH]n2)cc1 ?
### Response TRUE

### Prompt What do you have for CCCCc1nc2cccc(C(=O)OCC)c2n1Cc1ccc(-c2ccccc2-c2nn[nH]n2)cc1 ?
### Response FALSE

### Prompt What do you have for CCCCc1nc(Cl)c(CO)n1Cc1ccc(-c2ccccc2-c2nnn[nH]2)cc1 ?
### Response FALSE
